Sourced from patent US20100204203A1

# experimentalSystem: recombinant Human Phosphodiesterase B2 (PDE4B2) (Homo sapiens)
# Sequence (Q07343 1-564 isoform Q07343-2): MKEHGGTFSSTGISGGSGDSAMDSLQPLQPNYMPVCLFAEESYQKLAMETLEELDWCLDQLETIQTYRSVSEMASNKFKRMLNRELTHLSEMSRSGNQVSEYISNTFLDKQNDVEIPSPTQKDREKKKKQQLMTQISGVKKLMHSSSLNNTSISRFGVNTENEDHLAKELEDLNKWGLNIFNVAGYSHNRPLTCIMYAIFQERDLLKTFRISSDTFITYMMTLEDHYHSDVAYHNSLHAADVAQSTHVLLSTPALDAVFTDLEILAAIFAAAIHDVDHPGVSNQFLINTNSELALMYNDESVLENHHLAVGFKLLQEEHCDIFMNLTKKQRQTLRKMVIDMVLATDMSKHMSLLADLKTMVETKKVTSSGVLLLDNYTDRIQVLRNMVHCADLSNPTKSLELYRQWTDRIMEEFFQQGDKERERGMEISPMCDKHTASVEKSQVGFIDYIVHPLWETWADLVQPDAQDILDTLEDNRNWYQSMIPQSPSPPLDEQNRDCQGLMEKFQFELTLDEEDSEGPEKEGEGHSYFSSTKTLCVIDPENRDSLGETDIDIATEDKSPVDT
# assayComment: Human Phosphodiesterase B2 Radiometric Assay (yttrium silicate SPA beads, [3H]cyclic AMP)
# Type: biochemical
# particulars: recombinant human PDE4B2, radiometric SPA assay, 8 nM [3H]cyclic AMP; read-out: PDE4B2 pIC50 (converted)
Counter-ions that a name gives are not always drawn.
measuredAttribute: IC50 (nM)

Some compounds with recorded IC50:
NCc1ccc(-c2cccc(-n3c(=O)n([C@H]4CC[C@@H](NC(=O)c5cn6cc(F)ccc6n5)CC4)c(=O)c4cc(F)cnc43)c2)cc1 [Example 32, Hydrochloride]; 0.158
CC(C)N1CCN(Cc2ccc(-c3cccc(-n4c(=O)n([C@H]5CC[C@@H](NC(=O)C6(N(C)C)CC6)CC5)c(=O)c5cc(F)cnc54)c3)cc2)CC1; 0.0398

(I) Cn1ncc(CN[C@H]2CC[C@@H](n3c(=O)c4cc(F)cnc4n(-c4cccc(-c5ccc(CN6CCCOCC6)cc5)c4)c3=O)CC2)c1-c1ccccc1
(II) O=C(N[C@H]1CC[C@@H](n2c(=O)c3cc(F)cnc3n(-c3cccc(-c4ccc(CCCNCCCO)cc4)c3)c2=O)CC1)c1cn2cc(F)ccc2n1
(III) CN(C)Cc1cc(O)ccc1-c1cccc(-n2c(=O)n([C@H]3CC[C@@H](NCc4cn5cc(F)ccc5n4)CC3)c(=O)c3cc(F)cnc32)c1
(IV) O=c1c2cc(F)cnc2n(-c2cccc(-c3ccc(O)cc3CN3CCOCC3)c2)c(=O)n1[C@H]1CC[C@@H](NCc2cn3c(n2)CCCC3)CC1
Asked: Your job: order these 4 records by IC50, ascending. Form field (ranking): labels in requested order.
Given back: II, IV, III, I
